Data credit: paper PMC10013581

- Type: in vivo, human
- condition: male, human, plasma, po, 300 mg, t1/2, mean (SD), single oral 300 mg, fasting, n=18
recorded-endpoint: half-life

                                 smiles_str  reported_result
0  Cn1cc(-c2cnc3cnn(S(=O)(=O)c4cnc5ccc(-c6cnn(C)c6)cn45)c3c2)cn1           26.1 h

* * *

- Format: in vivo, human
- condition: male, human, plasma, po, 300 mg, AUC0-t (geometric mean), single oral 300 mg, fasting, n=17, bioavailability analysis set
recorded-endpoint: AUC(0-t) (ng·h/mL)

In [3]: df
Out[3]:
                                 smiles_str  measurement_unit  reported_result
0  Cn1cc(-c2cnc3cnn(S(=O)(=O)c4cnc5ccc(-c6cnn(C)c6)cn45)c3c2)cn1           ng·h/mL            24800

* * *

- Assay type: in vivo, human
- condition: male, human, plasma, po, 300 mg, Cmax (geometric mean), single oral 300 mg, low-fat meal, n=17, bioavailability analysis set
recorded-endpoint: Cmax (ng/mL)

In [3]: df
Out[3]:
                                 smiles_str  recorded_endpoint  measurement_unit  reported_result
0  Cn1cc(-c2cnc3cnn(S(=O)(=O)c4cnc5ccc(-c6cnn(C)c6)cn45)c3c2)cn1               Cmax             ng/mL             1600

* * *

- Type: in vivo, human
- condition: male, human, plasma, po, 300 mg, AUC0-t, mean (SD), single oral 300 mg, low-fat meal, n=18
recorded-endpoint: AUC(0-t) (ng·h/mL)

In [3]: df
Out[3]:
                                   compound  reported_result
0  Cn1cc(-c2cnc3cnn(S(=O)(=O)c4cnc5ccc(-c6cnn(C)c6)cn45)c3c2)cn1 [SCC244]            59600

* * *

- Assay type: in vivo, human
- condition: male, human, plasma, po, 300 mg, AUC0-inf (geometric mean), single oral 300 mg, fasting, n=17, bioavailability analysis set
recorded-endpoint: AUC(0-inf) (ng·h/mL)

In [3]: df
Out[3]:
                                 smiles_str  recorded_endpoint  reported_result
0  Cn1cc(-c2cnc3cnn(S(=O)(=O)c4cnc5ccc(-c6cnn(C)c6)cn45)c3c2)cn1         AUC(0-inf)            25300
